Origin of values: paper PMC5540273

Tested on: CAMK1B;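 also: KINOMEscan kinase panel screen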
Settings: concentration: 1 μM, replicates: in singlicate; n = 1
quantity name: %Inh (%)
Answers are plain numbers, in %.

I'm hoping you can list %Inh for every molecule here, please.
1. O=C(c1ccc(-c2cc(-c3c[nH]nc3-c3ccccn3)ccn2)cc1)N1CCCC1 [GW792479]
2. CCc1nc(-c2cccc(C)c2)c(-c2ccnc(NC(=O)c3ccccc3)c2)s1
3. O=C(Nc1ccccc1)Nc1ccc(Oc2ccc3nccn3n2)cc1
4. Fc1cccc(COc2ccc(Nc3ncnc4nn5ccccc5c34)cc2Cl)c1 [GW689066]
5. Cn1ccc2ncnc(Nc3ccc(Oc4cccc(Cl)c4)c(Cl)c3)c21

# output
[0, 0, 0, 15, 0]
